Here the recorded IC50 is given for each entry.
- subjectOfTest: UniProtKB O95271
- testName: TNKS1/PARP Biochemical Assay (TNKS1)

[
  {
    "smiles": "CN1CCN(Cc2ccc(-c3cc4c(Cl)cccc4c(=O)[nH]3)cc2)CC1",
    "IC50": "< 500 nM"
  },
  {
    "smiles": "CN1CCN(Cc2ccc(-c3cc4c(F)cc(F)cc4c(=O)[nH]3)cc2)CC1",
    "IC50": "< 50 nM"
  },
  {
    "smiles": "Cc1ccc(S(=O)(=O)N2CCN(C(C)(C)c3ccc(-c4cc5c(C)cccc5c(=O)[nH]4)cc3)CC2)cc1",
    "IC50": "< 500 nM"
  },
  {
    "smiles": "CN(C)C1CCN(c2ccc(-c3cc4c(Cl)cccc4c(=O)[nH]3)cn2)CC1",
    "IC50": "< 50 nM"
  },
  {
    "smiles": "CNC1CN(Cc2ccc(-c3cc4c(C)cccc4c(=O)[nH]3)cc2)C1",
    "IC50": "< 20 nM"
  },
  {
    "smiles": "O=c1[nH]c(-c2ccc(N3CCNCC3)nc2)cc2c(Cl)cccc12",
    "IC50": "< 50 nM"
  },
  {
    "smiles": "O=c1[nH]c(-c2ccc(CN3CCNCC3)cc2)cc2c(F)cc(F)cc12",
    "IC50": "< 50 nM"
  },
  {
    "smiles": "Cc1cccc2c(=O)[nH]c(-c3ccc(CC(=O)N4CC(O)C4)cc3)cc12",
    "IC50": "< 20 nM"
  },
  {
    "smiles": "Cc1cccc2c(=O)[nH]c(-c3ccc(CN4C[C@@H]5C[C@H]4CN5C(=O)OC(C)(C)C)cc3)cc12",
    "IC50": "< 50 nM"
  },
  {
    "smiles": "Cc1cc(F)cc2c(=O)[nH]c(-c3ccc(C(=O)N4CCN(C)CC4)nc3)cc12",
    "IC50": "16 nM"
  }
]

The values you see were collected from patent US9193689B2.
